These measurements were taken from patent US20240252677A1.

# Tested on: lung
# Test summary: In vivo mRNA delivery, IVIS imaging of organs: lung
# Parameters: species or system mice; key: lung: strong: Strong meant the luminescence intensity in that organ was relatively high, compared to other organs; weak: Weak meant the luminescence intensity in that organ was relatively low, compared to other organs
# Protocol conditions: Table 17; mice, IVIS, 4-6 h after injection; intensity relative to other organs
Reported property: Organs with luminescence: lung

CCCCCCCCCCCCCCCOc1cc(COC(=O)CCCN2CCN(CCO)CC2)cc(OCCCCCCCCCCC)c1 :: Lung (weak),
CCCCCCCCCCCCCCCCOc1cc(COC(=O)CCCN2CCN(C)CC2)cc(OCCCCCCCCCCCCCCC)c1 :: Lung (weak),

----------
# Test summary: Dimensions (size, PDI) of DNPs co-assembled from IAJDs and Luc-mRNA by DLS
# Type: physicochemical
# Protocol conditions: Table 13; DNPs, IAJD 4 mg/mL + Luc-mRNA 0.10 mg/mL, acetate buffer pH 4.0
So basically, if PDI comes in under 0.5 it's yes, and if it's 0.5 or more it's no.

For orientation, consider the following solved cases.
CCCCCCCCCCCCOc1cc(COC(=O)CCCN2CCN(C)CC2)cc(OCCCCCCCCCCCC)c1OCCCCCCCCCCCC :: no
CCCCCCCCCOc1cc(COC(=O)CCCN2CCN(C)CC2)cc(OCCCCCCCCC)c1 :: yes
CCCCC(CC)COc1cc(COC(=O)CCCN2CCN(C)CC2)cc(OCC(CC)CCCC)c1 (centres unmarked) :: yes

API: query returns whether the compound falls strictly under 0.5 in PDI. Query: CCCCCCCCOc1cc(COC(=O)CCCN2CCN(CCO)CC2)cc(OCCCCCCCC)c1
yes

Criterion: PDI strictly below 0.5. Is it met by CCCCCCCCCCCCOc1cc(COC(=O)CCCN2CCN(CCO)CC2)cc(OCCCCCCCCCCCC)c1 ?
yes

Say whether its PDI is strictly beneath 0.5. Entry: CCCCCCCCCCCCOc1cc(COC(=O)CCN2CCN(C)CC2)cc(OCCCCCCCCCCCC)c1
yes

Please check: PDI for CCCCCCCCCCCCOc1ccc(COC(=O)CCCN2CCN(C)CC2)cc1OCCCCCCCCCCCC , strictly under 0.5 or not?
no

Hello, is PDI of the following compound strictly smaller than 0.5? CCCCCCCCCCCCCCCCCCOc1cc(COC(=O)CCCN2CCN(C)CC2)cc(OCCCCCCCCCCC)c1
yes

----------
# Test summary: pKa measurements of individual IAJD molecules by titration
# Type: physicochemical
# Protocol conditions: ethanol saturated with NaCl, titrated with 0.1 M aqueous HCl; Table 15; individual IAJD molecule, titration
Reported property: pKa
# answer = number (no unit)

Sample answers from the record:
CCCCCCCCCCCCCCCCCCOc1cc(COC(=O)CCCN2CCN(C)CC2)cc(OCCCCCCCCCCCCCCCCCC)c1 [IAJD 98] :: 6.25
CCCCC(CC)COc1ccc(COC(=O)CCCN2CCN(C)CC2)cc1OCC(CC)CCCC (stereo not shown) [IAJD 103] :: 6.23
CCCCCCCCOc1cc(COC(=O)CCCN2CCN(CCO)CC2)cc(OCCCCCCCC)c1 [IAJD 89] :: 6.45

Now, please, on to the next compound.
Answer with the recorded pKa of CCCCCCCCCCCCOc1cc(COC(=O)CCCN2CCCCC2)cc(OCCCCCCCCCCCC)c1 [IAJD 65] only.
7.4
